Values compiled from patent US5519028A.

Assay: Cytotoxicity in human monocytes
Type: cell-based
Conditions: human, monocytes; 30 μg/ml; four donors
assayMetric: cytotoxicity

Prompt: Item CCc1ccc2c3[nH]c4ccccc4c3cc[n+]2c1 [flavopereirine] has what recorded cytotoxicity?
Response: > 40%

====

Test: Cytotoxicity in human monocytes
Format: cell-based
Settings: human, monocytes; healthy and asymptomatic HIV-positive donors; read-out: toxic dosage on human monocytes in vitro
assayMetric: MCC

Prompt: Give the measured MCC of CCc1ccc2c3[nH]c4ccccc4c3cc[n+]2c1 .
Response: > 20 µg/mL

====

Test: Cytotoxicity (viability) in blastic PBMC
Assay type: cell-based, human
Conditions: human, pha-stimulated pbmc, blastic, 60 μg/ml 2 hrs, d15; read-out: Viability of PBMC after exposure
assayMetric: viability at 360 h (%)
Reply numerically in %, unit not repeated.

Prompt: Please report the recorded viability at 360 h for CCc1ccc2c3[nH]c4ccccc4c3cc[n+]2c1 .
Response: 63

====

Assay: Cytotoxicity (viability) in blastic PBMC
Format: cell-based, human
Details: human, pha-stimulated pbmc, blastic, 60 μg/ml 2 hrs, d13; read-out: Viability of PBMC after exposure
assayMetric: viability at 312 h (%)
Just the number please, in %, no unit attached.

Prompt: I would be grateful if you could share the reported viability at 312 h for CCc1ccc2c3[nH]c4ccccc4c3cc[n+]2c1 .
Response: 71

====

Assay: Cytotoxicity (viability) in resting PBMC
Assay type: cell-based, human
Conditions: human, pbmc, 60 μg/ml 2 hrs, d13; read-out: Viability of PBMC after exposure
assayMetric: viability at 312 h (%)
Value expressed in %; do not type the unit.

Prompt: Fill in the blank: the reported viability at 312 h of CCc1ccc2c3[nH]c4ccccc4c3cc[n+]2c1 is ____.
Response: 12

====

Assay: Cytotoxicity (viability) in resting PBMC
Type: cell-based, human
Settings: human, pbmc, 60 μg/ml 2 hrs, d15; read-out: Viability of PBMC after exposure
assayMetric: viability at 360 h (%)
Give the quantity in %, number only.

Prompt: Find the recorded viability at 360 h belonging to CCc1ccc2c3[nH]c4ccccc4c3cc[n+]2c1 [flavopereirine] and report it.
Response: 25

====

Assay: Cytotoxicity (viability) in resting PBMC
Assay type: cell-based, human
Details: human, pbmc, 30 μg/ml 2 hrs, d11; read-out: Viability of PBMC after exposure
Protocol: To evaluate the cytotoxicity of flavopereirine in resting PBMC and in blast cells, prewashed fresh and blastic PBMC taken from five randomly-selected,healthy, HIV-negative donors were treated in triplicate with 30 or 60 μg flavopereirine per ml of alcoholic solution for two hours, After washing twice, the cells were placed in culture in cellular culture medium until day 15. The viability of the cells of each group was examined by exclusion coloring with trypan blue and by quantimetric analysis. […]
assayMetric: viability at 264 h (%)
# output: bare number, implied unit %

Prompt: I am curious: what viability at 264 h value has been reported for CCc1ccc2c3[nH]c4ccccc4c3cc[n+]2c1 [flavopereirine] ?
Response: 88

====

Test: Cytotoxicity (viability) in blastic PBMC
Format: cell-based, human
Details: human, pha-stimulated pbmc, blastic, 30 μg/ml 2 hrs, d15; read-out: Viability of PBMC after exposure
Protocol: To evaluate the cytotoxicity of flavopereirine in resting PBMC and in blast cells, prewashed fresh and blastic PBMC taken from five randomly-selected,healthy, HIV-negative donors were treated in triplicate with 30 or 60 μg flavopereirine per ml of alcoholic solution for two hours, After washing twice, the cells were placed in culture in cellular culture medium until day 15. The viability of the cells of each group was examined by exclusion coloring with trypan blue and by quantimetric analysis. […]
assayMetric: viability at 360 h
Put down the number, then write its unit next to it.

Prompt: Recorded viability at 360 h of CCc1ccc2c3[nH]c4ccccc4c3cc[n+]2c1 , please.
Response: 69%

====

Test: Cytotoxicity (viability) in blastic PBMC
Assay type: cell-based, human
Settings: human, pha-stimulated pbmc, blastic, 30 μg/ml 2 hrs, d11; read-out: Viability of PBMC after exposure
assayMetric: viability at 264 h (%)
Output spec: scalar in %, unitless text.

Prompt: What value of viability at 264 h has been reported for the following compound? CCc1ccc2c3[nH]c4ccccc4c3cc[n+]2c1
Response: 71

====

Test: Cytotoxicity (viability) in blastic PBMC
Format: cell-based, human
Conditions: human, pha-stimulated pbmc, blastic, 30 μg/ml 2 hrs, d13; read-out: Viability of PBMC after exposure
assayMetric: viability at 312 h (%)
// units = %; emit number, no label

Prompt: Please give the measured viability at 312 h for this compound: CCc1ccc2c3[nH]c4ccccc4c3cc[n+]2c1
Response: 76

====

Test: Cytotoxicity (viability) in blastic PBMC
Type: cell-based, human
Conditions: human, pha-stimulated pbmc, blastic, 60 μg/ml 2 hrs, d7; read-out: Viability of PBMC after exposure
assayMetric: viability at 168 h (%)
Please state the figure in %; there is no need to write the unit.

Prompt: Entry CCc1ccc2c3[nH]c4ccccc4c3cc[n+]2c1 has what viability at 168 h?
Response: 74

====

Assay: Cytotoxicity (viability) in resting PBMC
Format: cell-based, human
Details: human, pbmc, 30 μg/ml 2 hrs, d15; read-out: Viability of PBMC after exposure
assayMetric: viability at 360 h (%)
Entry rule: numbers only, all in %.

Prompt: Field request: viability at 360 h | item: CCc1ccc2c3[nH]c4ccccc4c3cc[n+]2c1
Response: 81
